Ki for Alpha-1B adrenergic receptor (Homo sapiens), merged from several publications.
- system tested: Alpha-1B adrenergic receptor (Homo sapiens)
- Sequence (P35368 whole entry): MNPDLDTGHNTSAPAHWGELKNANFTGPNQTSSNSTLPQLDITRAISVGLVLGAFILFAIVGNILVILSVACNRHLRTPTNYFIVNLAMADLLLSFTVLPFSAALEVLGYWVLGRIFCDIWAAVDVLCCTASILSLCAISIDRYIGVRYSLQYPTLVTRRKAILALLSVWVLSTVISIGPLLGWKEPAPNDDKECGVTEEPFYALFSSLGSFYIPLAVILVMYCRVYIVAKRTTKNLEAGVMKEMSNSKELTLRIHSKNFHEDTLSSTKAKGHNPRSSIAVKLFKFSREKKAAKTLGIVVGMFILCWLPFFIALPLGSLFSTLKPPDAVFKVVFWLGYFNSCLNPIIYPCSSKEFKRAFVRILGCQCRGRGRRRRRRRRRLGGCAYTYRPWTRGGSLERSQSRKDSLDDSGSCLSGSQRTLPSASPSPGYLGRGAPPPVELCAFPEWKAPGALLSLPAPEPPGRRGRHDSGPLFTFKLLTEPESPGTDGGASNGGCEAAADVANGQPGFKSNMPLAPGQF
Express it in nM; write the number only.

Kindly indicate its recorded Ki. Item: "CSc1ccc(F)cc1NCC1=NCCN1"
40.7

Kindly indicate its recorded Ki. Item: "O=C(C1CCCCC1)N(CCN1CCN(c2ccccc2)CC1)c1ccccn1"
1050

Kindly indicate its recorded Ki. Item: "CN1CCc2c(c3cccc4c3n2CCc2ccccc2-4)C1"
2240

Kindly indicate its recorded Ki. Item: CO/C(O)=C1\C(C)=NC(C)=C(C(=O)NCCCN2CCC(c3ccccc3)(c3ccccc3)CC2)C1c1ccc2ccccc2c1 (centres undefined)
138

Kindly indicate its recorded Ki. Item: "COCC1=C(C(=O)OC)[C@H](c2ccc(F)c(F)c2)N(C(=O)N[C@H]2CC[C@@H](N3CCC(c4ccccn4)CC3)C2)C(=O)N1"
290

Kindly indicate its recorded Ki. Item: COc1ccccc1CCCNCC1COC(c2ccccc2)(c2ccccc2)O1 (racemic)
41.7

Kindly indicate its recorded Ki. Item: "COc1ccc(-c2ccccc2)cc1OCCNC[C@H]1COc2ccccc2O1"
11

Kindly indicate its recorded Ki. Item: COCC1=C(C(=O)OC)C(c2ccc(F)c(F)c2)N(C(=O)NCCCN2CCC(C#N)(c3cccc(F)c3)CC2)C(=O)N1 (centres undefined)
150

Kindly indicate its recorded Ki. Item: "O=C1OC2(CCN(CCc3cccc4ccccc34)CC2)Cc2ccccc21"
137

Kindly indicate its recorded Ki. Item: CO/C(O)=C1\C(C)=NC(C)=C(C(=O)NCCCCN2CCC(c3ccccc3)(c3ccccc3)CC2)C1c1ccc([N+](=O)[O-])cc1 (centres undefined)
64.6

###

pKi: −log10 of the molar value.
pKi for Alpha-1B adrenergic receptor (Homo sapiens), merged from several publications.

Kindly indicate its recorded pKi. Item: c1ccc(OCCNC[C@H]2OCCO[C@H]2c2ccccc2)cc1 (relative stereo)
< 6.00

Kindly indicate its recorded pKi. Item: COc1ccccc1OCCNCC1(c2ccccc2)COCCO1 (centres undefined)
< 6.00

Kindly indicate its recorded pKi. Item: "CNc1ccc2c(c1)[C@H](NCCOc1cc(F)ccc1F)CCS2(=O)=O"
< 5.92

Kindly indicate its recorded pKi. Item: "COc1ccccc1N1CCN(Cc2ccc(CN3CCCCC3=O)s2)CC1"
< 5.30

Kindly indicate its recorded pKi. Item: CC(C)Oc1ccccc1N1CCN(CC(O)CNC(=O)c2ccc3c(c2)C(=O)N(c2ccc(O)cc2)C3=O)CC1 (centres undefined)
< 5.70

Kindly indicate its recorded pKi. Item: COc1ccccc1OCCNC[C@H]1OCCO[C@H]1c1ccccc1 (relative stereo)
< 6.00

Kindly indicate its recorded pKi. Item: "O=C1CCCCCN1Cc1cc(CN2CCN(c3ccccc3Oc3ccccc3)CC2)on1"
< 5.30

Kindly indicate its recorded pKi. Item: "CC(C)Oc1ccccc1N1CCN(C[C@@H](O)CNC(=O)c2ccc3c(c2)C(=O)N(c2ccc(O)cc2)C3=O)CC1"
< 5.70

Kindly indicate its recorded pKi. Item: COc1ccccc1N1CCN(CC(O)CNC(=O)c2ccc3c(c2)C(=O)N(c2cccc(F)c2)C3=O)CC1 (centres undefined)
< 5.70

###

pKi for Alpha-1B adrenergic receptor (Homo sapiens, UniProt P35368), merged from several publications.
pKi: −log10 of the molar value.

Fetch value of pKi on Alpha-1B adrenergic receptor (Homo sapiens, UniProt P35368) for c1ccc(-c2cccc(OCCNCC3COC(c4ccccc4)(c4ccccc4)O3)c2)cc1 (racemic) .
< 6.00

Fetch value of pKi on Alpha-1B adrenergic receptor (Homo sapiens, UniProt P35368) for c1ccc(OCCNCC2(c3ccccc3)COCCO2)cc1 (centres undefined) .
< 6.00

Fetch value of pKi on Alpha-1B adrenergic receptor (Homo sapiens, UniProt P35368) for "CC(C)Oc1ccccc1N1CCN(Cc2cc(CN3CCCCC3=O)nc(N)n2)CC1" .
< 5.00

Fetch value of pKi on Alpha-1B adrenergic receptor (Homo sapiens, UniProt P35368) for "CC(C)c1ccc(N2CCN(CCn3cnc4c5ccccc5nc-4c3O)CC2)cc1" .
< 5.00
